Test system: MALME-3M melanoma
Test: NCI tumour cell line growth inhibition, 48 h
Hi there, I'd appreciate the recorded TGI for every entry that follows.

// molecule FC(F)(F)P1C2C=CC(CC2)C1(F)F (stereo not given) , assay MALME-3M melanoma, TGI value: > 100 µM

// molecule CN(C)CCN1C(=O)CC[C@@]2(C)C1=CC[C@@H]1[C@@H]2CC[C@@]2(C)[C@H]1CC[C@]2(C)O , assay MALME-3M melanoma, TGI value: > 100 µM

// molecule O=C1c2cc3c(cc2-c2c1c1cc(Cl)c(Cl)cc1c(=O)n2CCCn1ccnc1)OCO3 , assay MALME-3M melanoma, TGI value: 17 µM

// molecule O=S(=O)(O)CS(=O)(=O)OCCCl , assay MALME-3M melanoma, TGI value: > 100 µM

// molecule COC(=O)[C@]12CC[C@@H](C)[C@H](C)[C@@H]1C1=CC[C@@H]3[C@@]4(C)CC(=O)[C@H](O)[C@@]5(C)COC(=C45)C[C@@]3(C)[C@]1(C)CC2 , assay MALME-3M melanoma, TGI value: 30.7 µM

// molecule Cn1cc(-c2ccc(=O)n(Cc3cccc(-c4ncc(OCCN5CCOCC5)cn4)c3)n2)cn1 , assay MALME-3M melanoma, TGI value: > 100 µM

// molecule CC(=O)N1c2ccccc2C(C)(C)OC1C(Cl)(Cl)Cl (stereo not given) , assay MALME-3M melanoma, TGI value: > 100 µM

// molecule O=S(=O)(c1cc(Cl)ccc1Cl)N1CCN(c2ccc(Cl)c(Cl)c2)CC1 , assay MALME-3M melanoma, TGI value: > 100 µM

// molecule CCOC(=O)c1cccc(NC(=O)CBr)c1 , assay MALME-3M melanoma, TGI value: 4.22 µM

// molecule CCOP(=O)(OCC)C1C(=O)O[C@H]2CCCC[C@@H]12 (stereo not given in full) , assay MALME-3M melanoma, TGI value: > 100 µM
